quantity-measured: melting point

Input line: // returns reported melting point for input O=C1N=C2C=CC=CN2C12Cc1ccc(C(F)(F)F)cc1C2 (stereo not shown)
Output line: 176.5 to 179.5 °C

Input line: // returns reported melting point for input O=C1N=C2CCCCN2C1(C1CCCCC1)C1CCCCC1
Output line: 218 to 220 °C

Input line: // returns reported melting point for input O=C1N=C2C(NCc3ccccc3)=CC=CN2C1(Cc1ccccc1)Cc1ccccc1
Output line: 250 °C

Input line: // returns reported melting point for input C=CCC1(CC=C)C(=O)N=C2C(OCc3ccccc3)=CC=CN21
Output line: 160 to 162 °C

Input line: // returns reported melting point for input COc1ccc2c(c1)CC1(C2)C(=O)N=C2C=CC=CN21 (stereo not shown)
Output line: 150 to 152 °C

Input line: // returns reported melting point for input O=C1N=C2C(OC3CCCC3)=CC=CN2C1(Cc1ccccc1)Cc1ccccc1
Output line: 268 to 269 °C

Input line: // returns reported melting point for input O=C1N=C2c3ccccc3C=CN2C12Cc1ccccc1C2
Output line: 201 to 203 °C

Input line: // returns reported melting point for input O=C1N=C2C=CC=CN2C12Cc1ccc(I)cc1C2 (stereo not shown)
Output line: 167 to 171 °C

Input line: // returns reported melting point for input Oc1nc2ccccn2c1Cc1ccc2ccccc2c1
Output line: 205 °C (dec.)

Input line: // returns reported melting point for input COC(=O)c1ccc(CC2(Cc3ccc(C(=O)OC)cc3)C(=O)N=C3C=CC=CN32)cc1
Output line: 289 to 290 °C

Input line: // returns reported melting point for input C=CCOC1=CC=CN2C1=NC(=O)C2(Cc1ccccc1)Cc1ccccc1
Output line: 214 to 215 °C

Input line: // returns reported melting point for input O=C1N=C2C3=C(C=CN2C12CCCC2)CCCC3
Output line: 270.5 °C (dec.)

Input line: // returns reported melting point for input O=C1N=C2C=CC=CN2C1(Cc1cccc(Cl)c1)Cc1cccc(Cl)c1
Output line: 271 to 272 °C

Input line: // returns reported melting point for input COC1=CC=CN2C1=NC(=O)C21CC=CC1
Output line: 200 to 202 °C

Input line: // returns reported melting point for input O=C1N=C2N=CC=CN2C1(Cc1ccccc1)Cc1ccccc1
Output line: > 300 °C

Input line: // returns reported melting point for input O=C1N=C2C(OCc3ccccc3)=CC=CN2C12CC=CC2
Output line: 178.5 to 180.5 °C

Input line: // returns reported melting point for input O=C1N=C2C=CC=CN2C1(Cc1ccc(-c2ccccc2)cc1)Cc1ccc(-c2ccccc2)cc1
Output line: > 300 °C

Input line: // returns reported melting point for input COC1=CC=CN2C1=NC(=O)C2(Cc1ccccc1)Cc1ccccc1
Output line: 274 to 275 °C

Input line: // returns reported melting point for input O=C1N=C2C=CC=CN2C12Cc1cccc3cccc(c13)C2
Output line: 262 °C (dec.)

###

Can you tell me melting point for the items I'm about to list?

Input line: // returns reported melting point for input O=C1N=C2C(OCc3ccccc3)=CC=CN2C1(Cc1ccccc1)Cc1ccccc1 [Compound 7]
Output line: 240 to 241 °C

Input line: // returns reported melting point for input O=C1N=C2C=CC=CN2C1Cc1ccccc1 (stereo not shown) [Compound 54, 3-benzylimidazo[1,2-a]pyridin-2(3H)-one]
Output line: 182 °C (dec.)

Input line: // returns reported melting point for input O=C1N=C2C=CC=CN2C1(Cc1cccs1)Cc1cccs1 [Compound 30]
Output line: 289.5 °C (dec.)

Input line: // returns reported melting point for input CCCCC1(CCCC)C(=O)N=C2CCCCN21 [Compound 73]
Output line: 35 to 40 °C

Input line: // returns reported melting point for input O=C1N=C2C=CC=CN2C1(Cc1ccc(F)cc1F)Cc1ccc(F)cc1F [Compound 28]
Output line: 269 to 271 °C

Input line: // returns reported melting point for input CC1=CN2C(=NC(=O)C2(Cc2ccccc2)Cc2ccccc2)S1 [Compound 48]
Output line: > 300 °C

Input line: // returns reported melting point for input O=C1N=C2c3ccccc3C=CN2C12Cc1cc3nsnc3cc1C2 [Compound 62]
Output line: 271.5 °C (dec.)

Input line: // returns reported melting point for input O=C1N=C2C=CC=CN2C12Cc1cccc(F)c1C2 (stereo not shown) [Compound 56]
Output line: 148 °C (dec.)

Input line: // returns reported melting point for input O=C1N=C2C=CC=CN2C1(Cc1ccc([N+](=O)[O-])cc1)Cc1ccc([N+](=O)[O-])cc1
Output line: > 300 °C

Input line: // returns reported melting point for input C/C=C/CC1(C/C=C/C)C(=O)N=C2N=CC=CN21 [Compound 55]
Output line: 149.5 °C (dec.)

Input line: // returns reported melting point for input O=C1N=C2C=CC=CN2C1(Cc1ccc(F)cc1)Cc1ccc(F)cc1 [Compound 17]
Output line: 290 to 292 °C

Input line: // returns reported melting point for input C#CCC1(CC#C)C(=O)N=C2C=CC=CN21 [Compound 35]
Output line: 172 to 175 °C

Input line: // returns reported melting point for input O=C1N=C2C(Cl)=CC(C(F)(F)F)=CN2C1(Cc1ccccc1)Cc1ccccc1 [Compound 14]
Output line: 234 to 236 °C

Input line: // returns reported melting point for input O=C1N=C2c3ccccc3C=CN2C12CCCC2 [Compound 75]
Output line: 164.5 to 167.5 °C

Input line: // returns reported melting point for input C=CCC1(CC=C)C(=O)N=C2C(OCC3CC3)=CC=CN21 [Compound 79]
Output line: 139 to 142 °C

Input line: // returns reported melting point for input NC1=CC=CN2C1=NC(=O)C2(Cc1ccccc1)Cc1ccccc1 [Compound 39]
Output line: 283 to 285 °C

Input line: // returns reported melting point for input O=C1N=C2C(O)=CC=CN2C1(Cc1ccccc1)Cc1ccccc1 [Compound 36]
Output line: 283 to 285 °C

Input line: // returns reported melting point for input O=C1N=C2CCCCN2C12Cc1ccccc1C2 [Compound 77]
Output line: 276.5 °C (dec.)

Input line: // returns reported melting point for input COc1ccc(CC2(Cc3ccc(OC)cc3)C(=O)N=C3C=CC=CN32)cc1 [Compound 20]
Output line: 248 to 251 °C
